# ASSAY: antimalarial activity against Dd2 strain (AID 2302);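 note: 0% = DMSO untreated growth and 100% = chloroquine plus artemisinin killed control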
# RUN PARAMETERS: P. falciparum Dd2 in RBCs, LDH growth readout, 72 h; at 2 µM; stronger effect = higher value
Reported growth inhibition values are given for each entry in this list.
Answer format: numeric, % implied, no suffix.

Completed entries (count: 4):
>  <SMILES DATA>
CC(C)CNC(=O)c1cncc(-c2ccc(CNCCCc3ccccc3)cc2)c1

>  <UNIT STRING>
%

>  <growth inhibition>
73

$$$$
>  <SMILES DATA>
CCN(CC)CCN(Cc1ccc(-c2ccc(C(F)(F)F)cc2)cc1)C(=O)Cn1c(CCc2cccc(F)c2F)nc(=O)c2ccc(C)cc21

>  <UNIT STRING>
%

>  <growth inhibition>
58

$$$$
>  <SMILES DATA>
CCCCCCCCc1[nH]c(C)c(Br)c(=O)c1Br

>  <UNIT STRING>
%

>  <growth inhibition>
95

$$$$
>  <SMILES DATA>
c1cc(CNc2ncc(-c3ccsc3)c(-c3nccs3)n2)ccn1

>  <UNIT STRING>
%

>  <growth inhibition>
81

$$$$

--- query ---
growth inhibition recorded for this molecule, Nc1nc2c(cnn2CCCCCCCP(=O)(O)O)c(=O)[nH]1 , is 91

Hey, just so you know, these numbers are from PubChem BioAssay.
